Target: T1, IL-18 receptors on HEK-Blue IL-18 reporter cells (UniProt Q13478 19-541; O95256 20-599, limits assumed); further: unit not given here
T1 sequence (looked up) 1: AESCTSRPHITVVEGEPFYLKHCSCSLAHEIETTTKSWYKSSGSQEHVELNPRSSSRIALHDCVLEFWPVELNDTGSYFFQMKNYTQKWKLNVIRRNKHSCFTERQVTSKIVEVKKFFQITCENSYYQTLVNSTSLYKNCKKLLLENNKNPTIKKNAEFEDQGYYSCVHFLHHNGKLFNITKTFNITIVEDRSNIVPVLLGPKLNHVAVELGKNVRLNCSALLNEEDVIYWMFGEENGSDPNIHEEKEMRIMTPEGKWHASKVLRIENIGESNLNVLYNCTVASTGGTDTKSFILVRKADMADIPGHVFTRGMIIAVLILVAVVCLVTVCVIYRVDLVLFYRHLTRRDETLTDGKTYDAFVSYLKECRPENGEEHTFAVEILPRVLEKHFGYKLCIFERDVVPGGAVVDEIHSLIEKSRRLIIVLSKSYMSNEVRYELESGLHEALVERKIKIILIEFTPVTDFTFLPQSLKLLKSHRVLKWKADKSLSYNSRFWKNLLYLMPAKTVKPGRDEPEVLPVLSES
T1 sequence (looked up) 2: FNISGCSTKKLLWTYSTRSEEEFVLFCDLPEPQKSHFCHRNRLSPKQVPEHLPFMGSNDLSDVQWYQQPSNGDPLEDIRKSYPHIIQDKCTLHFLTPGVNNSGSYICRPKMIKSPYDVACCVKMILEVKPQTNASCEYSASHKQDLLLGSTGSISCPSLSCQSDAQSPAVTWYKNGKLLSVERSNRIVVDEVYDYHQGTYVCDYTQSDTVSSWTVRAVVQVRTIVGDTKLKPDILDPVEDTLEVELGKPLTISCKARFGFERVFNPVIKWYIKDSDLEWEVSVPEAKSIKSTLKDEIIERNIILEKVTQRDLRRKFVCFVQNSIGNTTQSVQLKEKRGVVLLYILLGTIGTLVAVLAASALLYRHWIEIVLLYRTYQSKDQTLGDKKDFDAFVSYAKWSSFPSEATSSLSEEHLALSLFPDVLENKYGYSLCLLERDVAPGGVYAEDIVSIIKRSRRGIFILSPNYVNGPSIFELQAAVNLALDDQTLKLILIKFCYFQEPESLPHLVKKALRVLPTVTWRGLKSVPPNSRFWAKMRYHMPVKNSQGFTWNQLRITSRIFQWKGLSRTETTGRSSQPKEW
Assay: cell-based or functional assay
A collection of binders and their measured Activity, No BP, DF-500000

BINDER: IL-18 variant G3L, E6Q, D54Y, S55P, T63S, N91S, R104Q (ligand) YFLKLQSKLSVIRNLNDQVLFIDQGNRPLFEDMTDSDMRDNAPRTIFIISMYKYPQPRGMAVSISVKSEKISTLSSENKIISFKEMNPPDSIKDTKSDIIFFQQSVPGHDNKMQFESSSYEGYFLASEKERDLFKLILKKEDELGDRSIMFTVQNED
Activity, No BP, DF-500000: 0.9

We now examine a further binder.
Request: Which Activity, No BP, DF-500000 reading was recorded for the binder IL-18 variant G3Q, E6N, D54Y, S55P, T63S, N91S, R104H (ligand) YFQKLNSKLSVIRNLNDQVLFIDQGNRPLFEDMTDSDMRDNAPRTIFIISMYKYPQPRGMAVSISVKSEKISTLSSENKIISFKEMNPPDSIKDTKSDIIFFQHSVPGHDNKMQFESSSYEGYFLASEKERDLFKLILKKEDELGDRSIMFTVQNED ?
Result: 0.75
